Tested on: MCF7
Assay: Antiproliferative activity against human MCF7 cells after 48 hrs in presence of 10% FBS by MTT method
Type: functional
Conditions: MCF7, 48 h
Result Type: GI50 (µM)

Worked set:
[
  {
    "Smiles Representation": "Cc1ccc(-n2cc(C(=O)NOCc3ccc(Cl)cc3Cl)c(-c3ccccc3)n2)cc1",
    "GI50 / µM": 2.31
  },
  {
    "Smiles Representation": "COc1ccc(-n2cc(C(=O)NOCc3ccccc3Cl)c(-c3ccccc3)n2)cc1",
    "GI50 / µM": 3.73
  }
]

A: Cc1ccc(-n2cc(C(=O)NOCc3ccccc3)c(-c3ccccc3)n2)cc1
B: O=C(NOCc1ccccc1Cl)c1cn(-c2ccc(F)cc2)nc1-c1ccccc1
C: O=C(NOCc1ccccc1Cl)c1cn(-c2ccccc2)nc1-c1ccccc1
D: COc1ccc(-n2cc(C(=O)NOCc3ccccc3)c(-c3ccccc3)n2)cc1
E: O=C(NOCc1ccc(Cl)cc1Cl)c1cn(-c2ccc(F)cc2)nc1-c1ccccc1
Task: Returns the items ordered by GI50, from maximum to minimum. Give the order by naming the labels one after another as requested.
Output: E, B, C, D, A
(E: 25.3 µM, B: 11.4 µM, C: 7.41 µM, D: 2.77 µM, A: 1.87 µM)

----------
Test: Antiproliferative activity against human 293T cells after 48 hrs in presence of 10% FBS by MTT method
Format: cell-based
Conditions: 293T (HEK-293T) cells
Catalogue of compounds with associated CC50 at 48 h
Return type: number; implicit unit µM.

Worked set:
[
  {
    "Smiles Representation": "O=C(NOCc1ccccc1F)c1cn(-c2ccc(F)cc2)nc1-c1ccccc1",
    "Unit Symbol": "µM",
    "CC50 at 48 h": 147
  },
  {
    "Smiles Representation": "O=C(NOCc1ccc(Cl)cc1Cl)c1cn(-c2ccccc2)nc1-c1ccccc1",
    "Unit Symbol": "µM",
    "CC50 at 48 h": 40.2
  },
  {
    "Smiles Representation": "COc1ccc(-n2cc(C(=O)NOCc3ccc(Cl)cc3Cl)c(-c3ccccc3)n2)cc1",
    "Unit Symbol": "µM",
    "CC50 at 48 h": 545
  }
]

// below: CC50 at 48 h requested for another compound
Task: Quick one: CC50 at 48 h for O=C(NOCc1ccccc1Cl)c1cn(-c2ccccc2)nc1-c1ccccc1 ?
Output: 82

----------
Biological target: Dual specificity mitogen-activated protein kinase kinase 1 (Homo sapiens)
Assay: Inhibition of MEK1 in […] human A549 cells assessed as reduction in ERK1/2 phosphorylation by ELISA
Type: cell-based
Result Type: IC50 (nM)
Return type: number; implicit unit nM.

Task: Quick one: IC50 for Cc1ccc(-n2cc(C(=O)NOCc3ccccc3F)c(-c3ccccc3)n2)cc1 ?
Output: 610

----------
Target: Dual specificity mitogen-activated protein kinase kinase 1 (Homo sapiens, UniProt Q02750)
Test: Inhibition of recombinant full length human N-terminal GST-tagged C-terminal His6-tagged MEK1 expressed in Escherichia coli using myelin basic protein as substrate in presence of activated BRAF and ERK2 by ELISA
Sequence (Q02750 whole entry): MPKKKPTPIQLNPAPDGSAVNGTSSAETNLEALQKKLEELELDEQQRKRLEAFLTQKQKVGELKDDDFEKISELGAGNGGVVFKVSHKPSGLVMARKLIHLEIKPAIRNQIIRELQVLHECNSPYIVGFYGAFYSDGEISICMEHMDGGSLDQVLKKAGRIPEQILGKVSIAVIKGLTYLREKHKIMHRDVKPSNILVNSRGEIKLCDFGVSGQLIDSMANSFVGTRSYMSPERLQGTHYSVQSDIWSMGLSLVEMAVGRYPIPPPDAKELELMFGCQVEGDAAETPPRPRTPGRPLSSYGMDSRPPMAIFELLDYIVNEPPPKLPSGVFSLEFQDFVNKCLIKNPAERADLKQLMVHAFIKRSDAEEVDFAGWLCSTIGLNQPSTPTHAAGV
Result Type: IC50 (nM)
Return type: number; implicit unit nM.

Task: Quick one: IC50 for Cc1ccc(-n2cc(C(=O)NOCc3ccccc3F)c(-c3ccccc3)n2)cc1 ?
Output: 91
